Listing of recorded Potency by entry.
Protocol details: qHTS Assay for Inhibitors of Bacillus subtilis Sfp phosphopantetheinyl transferase (PPTase): SAR in B subtilis 168
Particulars: Bacillus subtilis 168 growth inhibition
Records with an inconclusive call do not appear. Activity calls are given as the source filed them. Calls come from the whole dose curve; as a rule, active = well fitted inhibition curve with a large enough effect; inconclusive = small, poorly fitted or top-dose-only effect; inactive = flat fitted curve, though single readings scatter.

>>> experimental_result("CSC(Cc1ccc(Cl)cc1)C(=O)Nc1ccc(Cl)cc1C(=O)O (stereo not given)")
"23.5 µM (active)"

Q: Quick one: Potency for COc1ccnc(NC(=S)N2CCN(c3ncc(C(F)(F)F)cc3Cl)CC2)c1 ?
Result: 18.7 µM (active)

Q: For the molecule Cc1ccnc(NC(=S)Nc2cccc(C(F)(F)F)c2)c1 , what Potency is on record?
Result: 18.7 µM (active)

Q: Fill blank: measured Potency of the molecule COc1ccnc(NC(=S)N2CCN(c3ccc(Cl)cc3Cl)CC2)c1 is ____.
Result: 16.7 µM (active)

Q: GET /values?readout=Potency&item= Cc1cc(C)nc(NC(=S)N2CC3CN(c4ccc(Cl)cc4C(F)(F)F)CC3C2)c1 (stereo not given)
Result: 11.8 µM (active)

Q: Recorded Potency of FC(F)(F)c1cc(N2CCN(C(=S)Nc3cc(Cl)ccn3)CC2)cc(C(F)(F)F)c1 , please.
Result: 6.63 µM (active)

Q: Reported Potency, molecule S=C(Nc1cc(Cl)ccn1)N1CCN(c2cccc(Cl)c2Cl)CC1 : ____
Result: 16.7 µM (active)

Q: Return reported Potency; argument: Cc1ccnc(NC(=S)N2CCN(c3cccc(C(F)(F)F)c3)CC2)c1
Result: 14.8 µM (active)

Q: Looking for the measured Potency of FC(F)(F)c1cccc(N2CCN(C(=S)Nc3cc(C(F)(F)F)ccn3)CC2)c1 , can you help?
Result: 16.7 µM (active)

Q: Given the molecule Cc1ccnc(NC(=S)N2CCN(c3cc(C(F)(F)F)cc(C(F)(F)F)c3)CC2)c1 , what is its reported Potency?
Result: 14.8 µM (active)
